Values from BigSolDB 2.1

- test-conditions: in methanol, 313.15 K

{"columns": ["mol-smiles", "solubility (mole fraction)"],
 "data": [
  ["Cc1cnc(C(=O)O)c[n+]1[O-]", 0.00517]
]}

###

- test-conditions: in water, 288.15 K

{"columns": ["mol-smiles", "solubility (mole fraction)"],
 "data": [
  ["Cc1cnc(C(=O)O)c[n+]1[O-]", 0.00227]
]}

###

- test-conditions: in acetone, 283.15 K
readout: solubility (mole fraction)

{"columns": ["mol-smiles", "readout", "quantitative-readout"],
 "data": [
  ["Cc1cnc(C(=O)O)c[n+]1[O-]", "solubility (mole fraction)", 0.00157]
]}

###

- test-conditions: in acetonitrile, 288.15 K
readout: solubility (mole fraction)

{"columns": ["mol-smiles", "result"],
 "data": [
  ["Cc1cnc(C(=O)O)c[n+]1[O-]", 0.000757]
]}

###

- test-conditions: in methanol, 293.15 K

{"columns": ["mol-smiles", "solubility (mole fraction)"],
 "data": [
  ["Cc1cnc(C(=O)O)c[n+]1[O-]", 0.00285]
]}

###

- test-conditions: in methanol, 318.15 K

{"columns": ["mol-smiles", "solubility (mole fraction)"],
 "data": [
  ["Cc1cnc(C(=O)O)c[n+]1[O-]", 0.00598]
]}

###

- test-conditions: in acetone, 308.15 K

{"columns": ["mol-smiles", "solubility (mole fraction)"],
 "data": [
  ["Cc1cnc(C(=O)O)c[n+]1[O-]", 0.00279]
]}

###

- test-conditions: in methanol, 288.15 K
readout: solubility (mole fraction)

{"columns": ["mol-smiles", "quantitative-readout"],
 "data": [
  ["Cc1cnc(C(=O)O)c[n+]1[O-]", 0.00244]
]}

###

- test-conditions: in acetone, 293.15 K
readout: solubility (mole fraction)

{"columns": ["mol-smiles", "quantitative-readout"],
 "data": [
  ["Cc1cnc(C(=O)O)c[n+]1[O-]", 0.00198]
]}

###

- test-conditions: in acetonitrile, 318.15 K

{"columns": ["mol-smiles", "solubility (mole fraction)"],
 "data": [
  ["Cc1cnc(C(=O)O)c[n+]1[O-]", 0.00249]
]}

###

- test-conditions: in methanol, 283.15 K
readout: solubility (mole fraction)

{"columns": ["mol-smiles", "readout", "quantitative-readout"],
 "data": [
  ["Cc1cnc(C(=O)O)c[n+]1[O-]", "solubility (mole fraction)", 0.00211]
]}

###

- test-conditions: in acetone, 303.15 K

{"columns": ["mol-smiles", "solubility (mole fraction)"],
 "data": [
  ["Cc1cnc(C(=O)O)c[n+]1[O-]", 0.00249]
]}

###

- test-conditions: in acetonitrile, 303.15 K
readout: solubility (mole fraction)

{"columns": ["mol-smiles", "readout", "result"],
 "data": [
  ["Cc1cnc(C(=O)O)c[n+]1[O-]", "solubility (mole fraction)", 0.00142]
]}

###

- test-conditions: in methanol, 303.15 K
readout: solubility (mole fraction)

{"columns": ["mol-smiles", "quantitative-readout"],
 "data": [
  ["Cc1cnc(C(=O)O)c[n+]1[O-]", 0.00381]
]}

###

- test-conditions: in acetonitrile, 293.15 K
readout: solubility (mole fraction)

{"columns": ["mol-smiles", "quantitative-readout"],
 "data": [
  ["Cc1cnc(C(=O)O)c[n+]1[O-]", 0.00097]
]}
